# Tested on: E. coli TESEC Mtb Asd
# method: growth (OD600 after 10 h); higher = more growth (less inhibition)
# assay.conditions: arabinose induction (level): Low; compound 0.1 mM; raw OD600 reference: median of DMSO wells 0.417, cell-free background 0.041
Structures can show the parent of a compound that is named as a salt.
The entries below are paired with their reported growth.

Example results:
compound | reported
CNc1ncnc2c1ncn2[C@@H]1O[C@H](CO)[C@@H](O)[C@H]1O | 0.416
O=C1CCc2ccc(OCCCCN3CCN(c4cccc(Cl)c4Cl)CC3)cc2N1 | 0.391
CCCCCCCCCCCCCCCC[N+](C)(C)CCN(Cc1ccc(OC)cc1)c1ncccn1 [Thonzonium bromide] | 0.059
CC1=C(C(=O)O)N2C(=O)[C@@H](NC(=O)[C@H](N)c3ccc(O)cc3)[C@H]2SC1 | 0.444
CN[C@@H]1[C@@H](O)[C@@H](O[C@@H]2[C@@H](O)[C@H](O[C@H]3OC(CN)=CC[C@H]3N)[C@@H](N)C[C@H]2N)OC[C@]1(C)O [Sisomicin sulfate] | 0.107

Field: next compound
Query: For the compound shown here, O=C1NCC2(CCN(CCc3ccccc3)CC2)O1 [Fenspiride hydrochloride] , give the reported growth.
Response: 0.45

----------
The entries below are paired with their reported growth.
# System: E. coli TESEC Mtb Asd
# method: growth (OD600 after 10 h); higher = more growth (less inhibition)
# assay.conditions: arabinose induction (level): High; compound 0.1 mM; raw OD600 reference: median of DMSO wells 0.331, cell-free background 0.041
Structures can show the parent of a compound that is named as a salt.
Please reply with the value in numeric form only.

Example results:
compound | growth
CC(C)C(=O)Nc1ccc([N+](=O)[O-])c(C(F)(F)F)c1 [Flutamide] | 0.156
CN1CCCN(C(c2ccccc2)c2ccc(Cl)cc2)CC1 (configuration not stated) [Homochlorcyclizine dihydrochloride] | 0.123
C[C@H]1C[C@H]2[C@@H]3CCC4=CC(=O)C=C[C@]4(C)[C@@]3(F)[C@@H](O)C[C@]2(C)[C@@]1(O)C(=O)CO [Betamethasone] | 0.273
Cc1cccc(Nc2ccccc2C(=O)O)c1C [Mefenamic acid] | 0.232
C[C@H](CCC(=O)O)[C@H]1CC[C@H]2[C@@H]3[C@@H](O)C[C@@H]4C[C@H](O)CC[C@]4(C)[C@H]3CC[C@]12C [Urosiol] | 0.394

Query: For the compound shown here, O=P(O)(O)C(O)(Cc1cccnc1)P(=O)(O)O [Risedronic acid monohydrate] , give the reported growth.
Response: 0.278

Query: Also NCCCC(O)(P(=O)(O)O)P(=O)(O)O [Alendronate sodium] ?
Response: 0.343

----------
# Test system: E. coli TESEC Alr+ wild-type control
# method: growth (OD600 after 10 h); higher = more growth (less inhibition)
# assay.conditions: compound 0.1 mM; raw OD600 reference: median of DMSO wells 0.49, cell-free background 0.052
Where a name gives a salt, the structure may show the parent alone.
The entries below are paired with their reported growth.
Please reply with the value in numeric form only.

Example results:
molecule | reported
Cc1onc(-c2c(F)cccc2Cl)c1C(=O)N[C@@H]1C(=O)N2[C@@H]1SC(C)(C)[C@@H]2C(=O)O [Flucloxacillin sodium] | 0.496
COc1cc(C)nc(-n2nc(C)cc2OC)n1 [Epirizole] | 0.493
CNCC[C@@H](Oc1cccc2ccccc12)c1cccs1 [(R)-Duloxetine hydrochloride] | 0.503
O=C(CCCCCCC(=O)Nc1ccccc1)NO [Vorinostat] | 0.495
CC(C)NCC(O)c1ccc(O)c(O)c1 (single isomer, unassigned; (+)) [(+)-Isoproterenol (+)-bitartrate salt] | 0.497

Query: Any idea what growth came out for COc1cc2nc(N3CCN(C(=O)C4COc5ccccc5O4)CC3)nc(N)c2cc1OC (configuration not stated) [Doxazosin mesylate] on E. coli TESEC Alr+ wild-type control?
Response: 0.0495

Query: Also CN(C(=O)C(Cl)Cl)c1ccc(OC(=O)c2ccco2)cc1 [Diloxanide furoate] ?
Response: 0.609

Query: Also CCN(Cc1ccncc1)C(=O)C(CO)c1ccccc1 (configuration not stated) [Tropicamide] ?
Response: 0.527

Query: Also NC(=O)N1c2ccccc2C=Cc2ccccc21 [Carbamazepine] ?
Response: 0.491

Query: Also O=C(O)Cc1ccc(-c2ccccc2)cc1 [Felbinac] ?
Response: 0.575

Query: Also CCc1c(C)[nH]c2c1C(=O)C(CN1CCOCC1)CC2 (configuration not stated) [Molindone hydrochloride] ?
Response: 0.472

----------
The entries below are paired with their reported growth.
# Test system: E. coli TESEC Alr+ wild-type control
# method: growth (OD600 after 10 h); higher = more growth (less inhibition)
# assay.conditions: compound 0.1 mM; raw OD600 reference: median of DMSO wells 0.241, cell-free background 0.041
Counter-ions that a name gives are not always drawn.
Please reply with the value in numeric form only.

compound | growth
C=CC1=C(C(=O)O)N2C(=O)[C@@H](NC(=O)/C(=N\OCC(=O)O)c3csc(N)n3)[C@H]2SC1 | 0.0395
Cc1ccccc1C(OCCN(C)C)c1ccccc1 (centres undefined) [Orphenadrine hydrochloride] | 0.208

Query: For the compound shown here, COc1ccc(Cl)cc1C(=O)NCCc1ccc(S(=O)(=O)NC(=O)NC2CCCCC2)cc1 [Glibenclamide] , give the reported growth.
Response: 0.122

Query: Also CC1(C)S[C@@H]2[C@H](NC(=O)Cc3ccccc3)C(=O)N2[C@H]1C(=O)O [Benzylpenicillin sodium] ?
Response: 0.237

----------
# System: E. coli TESEC Mtb Alr
# method: growth (OD600 after 10 h); higher = more growth (less inhibition)
# assay.conditions: arabinose 100 nM; compound 0.1 mM; raw OD600 reference: median of DMSO wells 0.413, cell-free background 0.052
Counter-ions that a name gives are not always drawn.
Lab note: compare growth against 0.4. Equal or greater, write yes. Smaller, write no.

compound | assay.system | class.name
O=C(OCC(O)CO)c1ccccc1Nc1ccnc2cc(Cl)ccc12 (stereo not drawn) [Glafenine hydrochloride] | E. coli TESEC Mtb Alr | no
CC(=O)OCC1=C(C(=O)O)N2C(=O)[C@@H](NC(=O)Cc3cccs3)[C@H]2SC1 [Cephalothin sodium salt] | E. coli TESEC Mtb Alr | no
COc1ccc(-c2cc(=O)c3c(O)cc(O[C@@H]4O[C@H](CO[C@@H]5O[C@@H](C)[C@H](O)[C@@H](O)[C@H]5O)[C@@H](O)[C@H](O)[C@H]4O)cc3o2)cc1O | E. coli TESEC Mtb Alr | yes
CCOC(=O)O[C@]1(C(=O)OCCl)CC[C@H]2[C@@H]3CCC4=CC(=O)C=C[C@]4(C)[C@H]3[C@@H](O)C[C@@]21C [Loteprednol etabonate] | E. coli TESEC Mtb Alr | no
CCC1NC(=O)c2cc(S(N)(=O)=O)c(Cl)cc2N1 (stereo not drawn) | E. coli TESEC Mtb Alr | yes
COC(=O)Nc1nc2ccc(SC(C)C)cc2[nH]1 | E. coli TESEC Mtb Alr | yes
C#CCN[C@@H]1CCc2ccccc21 | E. coli TESEC Mtb Alr | yes
CC(C)NC[C@H](O)COc1ccc(CC(N)=O)cc1 [(S)-(-)-Atenolol] | E. coli TESEC Mtb Alr | yes
CCCC(C(=O)OCCN(CC)CC)(c1ccccc1)c1ccccc1 [Proadifen hydrochloride] | E. coli TESEC Mtb Alr | no
Fc1ccc(C(c2ccc(F)cc2)N2CCN(C/C=C/c3ccccc3)CC2)cc1 [Flunarizine dihydrochloride] | E. coli TESEC Mtb Alr | no

Kindly consider the entry below.
Query: Check the entry Cc1cc(C(C)(C)CC(C)(C)C)ccc1OCCOCC[N+](C)(C)Cc1ccccc1 [Methyl benzethonium chloride] : does growth equal or exceed 0.4?
Response: no

----------
# Tested on: E. coli TESEC Mtb Alr
# method: growth (OD600 after 10 h); higher = more growth (less inhibition)
# assay.conditions: arabinose 10000000 nM; compound 0.1 mM; raw OD600 reference: median of DMSO wells […], cell-free background 0.052
Where a name gives a salt, the structure may show the parent alone.
Lab note: compare growth against 0.3. Equal or greater, write met. Smaller, write not met.

Please review the entries below; each comes with its answer.
compound | class.name
CC1(C)S[C@@H]2[C@H](NC(=O)[C@H](N)c3ccc(O)cc3)C(=O)N2[C@H]1C(=O)O [Amoxicillin] | met
CN(C)CCC=C1c2ccccc2C=Cc2ccccc21 [Cyclobenzaprine hydrochloride] | not met
C[C@H](CCC(=O)O)[C@H]1CC[C@H]2[C@@H]3[C@@H](O)C[C@@H]4C[C@H](O)CC[C@]4(C)[C@H]3CC[C@]12C [Urosiol] | not met
N=C(N)NCc1cccc(I)c1 [Iobenguane sulfate] | met

Query: Check the entry Cc1c(OCC(F)(F)F)ccnc1C[S+]([O-])c1nc2ccccc2[nH]1 (configuration not stated) [Lansoprazole] : does growth equal or exceed 0.3?
Response: not met

Query: Also O=C(c1ccccc1)c1ccc2n1CCC2C(=O)O (configuration not stated) [Ketorolac tromethamine] ?
Response: met

Query: Also N=C(N)NCCN1CCCCCCC1 [Guanethidine sulfate] ?
Response: met
